assay: Dissolution test (paddle apparatus, Ph. Eur. 2.9.3), release of active ingredient; type: physicochemical; conditions: time 16 hour
MEASUREMENT LABEL: Derivative (of % of active ingredient released over time) (%/min)

COMPOUND	UNIT SPEC	VAL
COc1cc2c(cc1OC)CC(=O)N(CCCN(C)C[C@H]1Cc3cc(OC)c(OC)cc31)CC2 [ivabradine hemipamoate]	%/min	0.01

* * *

assay: Dissolution test (paddle apparatus, Ph. Eur. 2.9.3), release of active ingredient; type: physicochemical; settings: time 0.75 hour
MEASUREMENT LABEL: Derivative (of % of active ingredient released over time) (%/min)

COMPOUND	VAL
COc1cc2c(cc1OC)CC(=O)N(CCCN(C)C[C@H]1Cc3cc(OC)c(OC)cc31)CC2 [ivabradine hemipamoate]	0.26
